Tested on: Enterococcus sp.
assay.notes: in vitro antibacterial evaluation, MIC by broth dilution
Format: cell-based
condition.info: Enterococcus faecalis (ATCC 29212); broth dilution, 18 hours at 35° C.
value.kind: MIC Enterococcus faecalis (ATCC 29212)

CC(c1ccccc1)C1NC(=O)CNC(=O)C(CO)NC(=O)C(C(O)C2CNC(=N)N2C2OC(COC(=O)C(c3ccccc3)c3ccccc3)C(O)C(O)C2O)NC(=O)C(C(O)C2CNC(=N)N2)NC(=O)C(Cc2ccc(OC3OC(CO)C(OC4OC(CO)C(O)C(O)C4O)C(O)C3O)cc2)NC1=O (stereo not drawn) [Example 96]    >128 µg/mL
CC(c1ccccc1)C1NC(=O)CNC(=O)C(CO)NC(=O)C(C(O)C2CNC(=N)N2C2OC(CO)C(O)C(O)C2O)NC(=O)C(C(O)C2CNC(=N)N2)NC(=O)C(Cc2ccc(OC3OC(CO)C(OC4OC5COC(c6ccc(C(=O)O)cc6)OC5C(O)C4O)C(O)C3O)cc2)NC1=O (stereo not drawn) [Example 141]    >64 µg/mL

Let's switch to this molecule now.
Consider CCCc1ccc(C2OCC3OC(OC4C(CO)OC(Oc5ccc(CC6NC(=O)C(C(C)c7ccccc7)NC(=O)CNC(=O)C(CO)NC(=O)C(C(O)C7CNC(=N)N7C7OC(CO)C(O)C(O)C7O)NC(=O)C(C(O)C7CNC(=N)N7)NC6=O)cc5)C(O)C4O)C(O)C(O)C3O2)cc1 (stereo not drawn) [Example 140] . Its measured MIC Enterococcus faecalis (ATCC 29212) is <0.5 µg/mL

====

Tested on: Streptococcus sp.
assay.notes: in vitro antibacterial evaluation, MIC by broth dilution
Assay type: cell-based
condition.info: broth dilution, 18 hours at 35° C.; strain GC 4563
Excerpt: Methods for in vitro Antibacterial Evaluation (Table 1) […]
Numbered stars: 1 amine (or outer) side, 2 acyl side, 3 side chain; on linkers, the order of the positions; unused ones are H or OH. Square brackets hold non-standard residues; d marks the D form. Peptide text beside a SMILES is read from it. * marks the point of attachment. ξ: configuration not given here. X6 = N=C1NCC(CC(N[*:1])C(=O)[*:2])N1C1OC(CO)C(O)C(O)C1O; ξEnduracididine(βξ-OH,4'ξ) = N=C1NCC(C(O)C(N)C(=O)O)N1; X2 = OCC1OC(OC2C(CO)OC(*)C(O)C2O)C(O)C(O)C1O; ξPhe(βξ-Me) = CC(c1ccccc1)C(N)C(=O)O
value.kind: MIC Streptococcus pyogenes (GC 4563)

Past entries and their recorded results:
CC(c1ccccc1)C1NC(=O)CNC(=O)C(CO)NC(=O)C(C(O)C2CNC(=N)N2C2OC(CO)C(O)C(O)C2O)NC(=O)C(C(O)C2CNC(=N)N2)NC(=O)C(Cc2ccc(OC3OC(CO)C(OC4OC5COC(Cc6ccc(Br)cc6)OC5C(O)C4O)C(O)C3O)cc2)NC1=O (centres unmarked)    <0.06 mg/L
N=C1NCC(C(O)C2NC(=O)C(Cc3ccc(OC4OC(CO)C(OC5OC(CO)C(O)C(O)C5O)C(O)C4O)cc3)NC(=O)C(Cc3ccccc3)NC(=O)CNC(=O)C(CO)NC(=O)C(C(O)C3CNC(=N)N3)NC2=O)N1 (stereo not drawn) [Example 296] (cyclo(GFY(X2)[ξEnduracididine(βξ-OH,4'ξ)][ξEnduracididine(βξ-OH,4'ξ)]S); configuration not given here)    >128 mg/L
CC(c1ccccc1)C1NC(=O)CNC(=O)C(CO)NC(=O)C(CC2CNC(=N)N2C2OC(CO)C(O)C(O)C2O)NC(=O)C(C(O)C2CNC(=N)N2)NC(=O)C(Cc2ccc(OC3OC(CO)C(OC4OC(CO)C(O)C(O)C4O)C(O)C3O)cc2)NC1=O (stereo not drawn) [Example 284b] (cyclo(G[ξPhe(βξ-Me)]Y(X2)[ξEnduracididine(βξ-OH,4'ξ)][X6]S); configuration not given here)    >128 mg/L
CC(c1ccccc1)C1NC(=O)CNC(=O)C(CO)NC(=O)C(C(O)C2CN(Cc3ccc(C(C)(C)C)cc3)C(=N)N2C2OC(CO)C(O)C(O)C2O)NC(=O)C(C(O)C2CNC(=N)N2)NC(=O)C(Cc2ccc(OC3OC(CO)C(OC4OC(CO)C(O)C(O)C4O)C(O)C3O)cc2)NC1=O (centres unmarked)    >128 mg/L

Let's switch to this compound now.
Consider CC(C1CCCCC1)C1NC(=O)CNC(=O)C(CO)NC(=O)C(C(O)C2CNC(=N)N2C2OC(CO)C(O)C(O)C2O)NC(=O)C(C(O)C2CNC(=N)N2)NC(=O)C(C[C@H]2CC[C@H](O)CC2)NC1=O (some centres unmarked) [Example 54a] . Its measured MIC Streptococcus pyogenes (GC 4563) is >128 mg/L
